tested on: EMT6; assay: Ratio of growth inhibition of NTR-transfected mouse mammary cell line to that of parental cell line (IC50 (NTR-)/IC50 (NTR+); assay type: functional
# if measured Ratio < 100: true (1)  # else: false (0)

O=C(NCCCN1CCOCC1)c1cc(N2CC2)c([N+](=O)[O-])cc1[N+](=O)[O-] | false (0)
NC(=O)c1ccc([N+](=O)[O-])c(N2CC2)c1 | true (1)

Let's switch to this molecule now.
## Input Strictly below 100 in Ratio? CS(=O)(=O)c1cc([N+](=O)[O-])c(C(N)=O)cc1N1CC1
## Output true (1)

* * *

assay: Partition coefficient (logP); type: physicochemical; conditions: octanol/water; read-out: logP
Endpoint Label: logP

Look over these answered cases.
CS(=O)(=O)c1cc([N+](=O)[O-])c(C(N)=O)cc1N1CC1 | -0.3
NC(=O)c1ccc([N+](=O)[O-])c(N2CC2)c1 | 0.47
O=C(NCC(O)CO)c1cc([N+](=O)[O-])cc([N+](=O)[O-])c1N1CC1 (configuration not stated) | -0.15
NC(=O)c1cc([N+](=O)[O-])c(N2CC2)c([N+](=O)[O-])c1 | 0.59
CC(=O)CCNC(=O)c1cc(N2CC2)c([N+](=O)[O-])cc1[N+](=O)[O-] | 0.56
O=C(NCCCCN1CCOCC1)c1cc(N2CC2)c([N+](=O)[O-])cc1[N+](=O)[O-] | -0.48
O=C(NCCN1CCOCC1)c1cc(N2CC2)c([N+](=O)[O-])cc1[N+](=O)[O-] | 0.31
CS(=O)(=O)c1cc([N+](=O)[O-])c(N2CC2)cc1C(N)=O | -0.41
CN(CCN1CCOCC1)C(=O)c1cc(N2CC2)c([N+](=O)[O-])cc1[N+](=O)[O-] | -0.26
O=C(NCCCN1CCOCC1)c1cc(N2CC2)c([N+](=O)[O-])cc1[N+](=O)[O-] | -1.05

Hey, quick one: what's logP for each of these?
1. NC(=O)c1cc([N+](=O)[O-])cc([N+](=O)[O-])c1N1CC1
2. NC(=O)c1c([N+](=O)[O-])ccc(N2CC2)c1[N+](=O)[O-]
3. O=C(NCCN1CCOCC1)c1cc([N+](=O)[O-])cc([N+](=O)[O-])c1N1CC1
4. O=C(NCC(O)CO)c1cc(N2CC2)c([N+](=O)[O-])cc1[N+](=O)[O-] (configuration not stated)

## Output
0.34
-0.17
0.11
-1.04

Hi, could you look up logP for each item in my list?
1. O=C(NCCn1ccnc1)c1cc(N2CC2)c([N+](=O)[O-])cc1[N+](=O)[O-]
2. NC(=O)c1cc(N2CC2)ccc1[N+](=O)[O-]
3. CS(=O)(=O)c1cc([N+](=O)[O-])c(N2CC2)cc1C(=O)NCC(O)CO (configuration not stated)

## Output
1. -0.48
2. 0.7
3. -0.96

* * *

test: Solubility in culture medium; assay type: physicochemical
Exercise: state measured solubility for each of the molecules provided.
Give bare numbers, in µM.

O=C(NCCN1CCOCC1)c1cc([N+](=O)[O-])cc([N+](=O)[O-])c1N1CC1 | 350
O=C(NCC(O)CO)c1cc([N+](=O)[O-])cc([N+](=O)[O-])c1N1CC1 (stereo not given) | 2500
CS(=O)(=O)c1cc([N+](=O)[O-])c(N2CC2)cc1C(=O)NCC(O)CO (stereo not given) | 4150
NC(=O)c1c([N+](=O)[O-])ccc(N2CC2)c1[N+](=O)[O-] | 2700

## Input Endpoint output: solubility of CS(=O)(=O)c1cc([N+](=O)[O-])c(C(N)=O)cc1N1CC1 . Value?
## Output 780
